system: trachealis muscle tissue; experiment: Inhibition of calcium dependent smooth muscle contraction, trachea (P#176 Trach); parameters: species or system dog; conditions: Canis lupus familiaris, 2.0 μM; 50 mM KCl contraction; read-out: P#176 Trach % INHB/μM
assay.endpoint: inhibition at 2 µM (%)
Kindly answer with a numeric value in %, unit omitted.

> print(dat)
                                   compound     target.or.test.system  experimental.result
1  CCOC(=O)C1=C(C)NC2=C(C1c1ccccc1[N+](=O)[O-])S(=O)(=O)CCNC2 (stereo not shown) [2-nitro / H / ethyl]  trachealis muscle tissue                   75

Quick one: give measured inhibition at 2 µM for CCOC(=O)C1=C(C)NC2=C(C1c1cccc(Cl)c1Cl)S(=O)(=O)CCN(Cc1ccccc1)C2 (stereo not shown) [2,3-dichloro / Bz / ethyl]
32

Quick one: give measured inhibition at 2 µM for CC1=C(C(=O)OCCN(C)Cc2ccccc2)C(c2cccc(Cl)c2Cl)C2=C(CNCCS2(=O)=O)N1 (stereo not shown) [2,3-dichloro / H / NBzNMe-ethyl]
86

Quick one: give measured inhibition at 2 µM for CCOC(=O)C1=C(C)NC2=C(C1c1c(F)cccc1Cl)S(=O)(=O)CCNC2 (stereo not shown) [2-Cl, 6-F / H / ethyl]
88
